Value source: ChEMBL document CHEMBL1140235

target: 3-beta-hydroxysteroid-Delta(8),Delta(7)-isomerase (Cavia porcellus)
experiment: Displacement of [3H](-)-(S)-emopamil from EBP in guinea pig liver membrane

| compound | censorSymbol | Ki [nM] |
| --- | --- | --- |
| Cc1cccc(C)c1C1=CCC(N2CCN(c3ccccn3)CC2)CC1 (racemic) | = | 46.7 |
| COc1cccc([C@H]2CC[C@@H](N3CCN(c4ccccc4)CC3)CC2)c1 | = | 1710 |
| CC(C)=CCN1CC[C@]2(C)c3cc(O)ccc3C[C@H]1[C@H]2C [(+)-PENTAZOCINE] | > | 10 |
| COc1ccc2c(c1)CCC(CN1CCN(c3ccccn3)CC1)C2 (configuration not stated) | = | 32.1 |
| Clc1ccccc1[C@H]1CC[C@@H](N2CCN(c3ccccn3)CC2)CC1 | = | 85.1 |
| Cc1ccccc1[C@H]1CC[C@@H](N2CCN(c3ccccn3)CC2)CC1 | = | 5 |
| Fc1cccc(F)c1[C@H]1CC[C@@H](N2CCN(c3ccccn3)CC2)CC1 | = | 140 |

====

Some molecules, each annotated with its measured pKi.
target: 5-hydroxytryptamine receptor 1A (Rattus norvegicus)
Sequence (P19327 whole entry): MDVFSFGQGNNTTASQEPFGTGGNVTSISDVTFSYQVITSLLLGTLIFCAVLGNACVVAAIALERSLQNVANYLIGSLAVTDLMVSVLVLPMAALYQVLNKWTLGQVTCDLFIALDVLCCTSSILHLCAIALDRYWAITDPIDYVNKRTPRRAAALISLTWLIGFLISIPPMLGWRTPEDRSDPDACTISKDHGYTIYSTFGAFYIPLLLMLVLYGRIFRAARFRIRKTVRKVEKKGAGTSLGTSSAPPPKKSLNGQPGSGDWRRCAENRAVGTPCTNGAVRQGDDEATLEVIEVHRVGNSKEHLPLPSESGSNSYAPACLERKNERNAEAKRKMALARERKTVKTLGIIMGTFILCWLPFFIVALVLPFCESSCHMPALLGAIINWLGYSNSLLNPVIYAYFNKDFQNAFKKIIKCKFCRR
experiment: Displacement of [3H]8OH-DPAT from 5HT1A receptor in rat hippocampal membrane
Assay type: cell membranes, Hippocampus
pKi: −log10 of the molar value.

| moleculeSmiles | pKi |
| --- | --- |
| COc1cccc([C@H]2CC[C@@H](N3CCN(c4cccc5ccccc45)CC3)CC2)c1 | 7.13 |
| COc1cccc([C@H]2CC[C@@H](N3CCN(c4ccccn4)CC3)CC2)c1 | 6.09 |
| COc1ccc([C@H]2CC[C@@H](N3CCN(c4ccccn4)CC3)CC2)cc1 | 7.03 |
| COc1cccc([C@H]2CC[C@@H](N3CCN(c4ccccc4)CC3)CC2)c1 | 6.74 |
| COc1ccccc1[C@H]1CC[C@@H](N2CCN(c3ccccn3)CC2)CC1 | 6.32 |

====

target: 3-beta-hydroxysteroid-Delta(8),Delta(7)-isomerase (Cavia porcellus)
Sequence (Q60490 whole entry): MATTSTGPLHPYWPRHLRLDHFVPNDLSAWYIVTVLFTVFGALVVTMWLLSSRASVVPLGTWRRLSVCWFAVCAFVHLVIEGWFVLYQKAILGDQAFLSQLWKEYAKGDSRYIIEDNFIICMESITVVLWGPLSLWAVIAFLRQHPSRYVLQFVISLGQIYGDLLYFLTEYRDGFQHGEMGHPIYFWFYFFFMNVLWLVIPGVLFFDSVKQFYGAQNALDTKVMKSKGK
experiment: Displacement of [3H](-)-(S)-emopamil from EBP in guinea pig liver membrane
pKi: −log10 of the molar value.

| moleculeSmiles | pKi |
| --- | --- |
| c1ccc([C@H]2CC[C@H](N3CCN(c4ccccn4)CC3)CC2)cc1 | 7.77 |
| Clc1ccccc1[C@H]1CC[C@H](N2CCN(c3ccccn3)CC2)CC1 | 8.14 |
| COc1cccc([C@H]2CC[C@@H](N3CCN(c4ccccn4)CC3)CC2)c1 | 7.34 |
| Cc1cccc(C)c1[C@H]1CC[C@@H](N2CCN(c3ccccn3)CC2)CC1 | 7.48 |
| COc1cccc([C@H]2CC[C@@H](NCCOc3ccccn3)CC2)c1 | 7.63 |
